experiment: Liver microsome stability test, human; format: in vitro ADME; conditions: human liver microsomes 0.5 mg/ml, compound 1 μM, NADPH 1 mM, within 60 minutes
Measured Quantity: CLint scaled at 1 μM

Completed entries (count: 2):
[
  {
    "Compound": "CC(C)c1ccc(N2CC(NS(C)(=O)=O)C2)c2cnc(Nc3ccnc(N4CCC(O)C(F)(F)C4)n3)cc12 (stereo not drawn)",
    "Result": "< 8.6 mL/min/kg"
  },
  {
    "Compound": "CC(C)c1ccc(N2CC(N(C)S(C)(=O)=O)C2)c2cnc(Nc3ccnc(N4CC[C@@H](O)[C@@H](F)C4)n3)cc12 [Compound P39a]",
    "Result": "< 8.6 mL/min/kg"
  }
]

Note: attention shifts to another entry.
Query block: Query (compound): CC(C)c1ccc(N2C[C@H](N(C)S(C)(=O)=O)[C@H]2C)c2cnc(Nc3ccnc(-c4cnn(S(=O)(=O)C5CC5)c4)n3)cc12 ; field requested: CLint scaled at 1 μM
Result block: < 8.6 mL/min/kg
